Values were extracted from ChEMBL document CHEMBL1158555.

- Target Entity: Androgen receptor (Homo sapiens)
- Sequence (P10275 whole entry): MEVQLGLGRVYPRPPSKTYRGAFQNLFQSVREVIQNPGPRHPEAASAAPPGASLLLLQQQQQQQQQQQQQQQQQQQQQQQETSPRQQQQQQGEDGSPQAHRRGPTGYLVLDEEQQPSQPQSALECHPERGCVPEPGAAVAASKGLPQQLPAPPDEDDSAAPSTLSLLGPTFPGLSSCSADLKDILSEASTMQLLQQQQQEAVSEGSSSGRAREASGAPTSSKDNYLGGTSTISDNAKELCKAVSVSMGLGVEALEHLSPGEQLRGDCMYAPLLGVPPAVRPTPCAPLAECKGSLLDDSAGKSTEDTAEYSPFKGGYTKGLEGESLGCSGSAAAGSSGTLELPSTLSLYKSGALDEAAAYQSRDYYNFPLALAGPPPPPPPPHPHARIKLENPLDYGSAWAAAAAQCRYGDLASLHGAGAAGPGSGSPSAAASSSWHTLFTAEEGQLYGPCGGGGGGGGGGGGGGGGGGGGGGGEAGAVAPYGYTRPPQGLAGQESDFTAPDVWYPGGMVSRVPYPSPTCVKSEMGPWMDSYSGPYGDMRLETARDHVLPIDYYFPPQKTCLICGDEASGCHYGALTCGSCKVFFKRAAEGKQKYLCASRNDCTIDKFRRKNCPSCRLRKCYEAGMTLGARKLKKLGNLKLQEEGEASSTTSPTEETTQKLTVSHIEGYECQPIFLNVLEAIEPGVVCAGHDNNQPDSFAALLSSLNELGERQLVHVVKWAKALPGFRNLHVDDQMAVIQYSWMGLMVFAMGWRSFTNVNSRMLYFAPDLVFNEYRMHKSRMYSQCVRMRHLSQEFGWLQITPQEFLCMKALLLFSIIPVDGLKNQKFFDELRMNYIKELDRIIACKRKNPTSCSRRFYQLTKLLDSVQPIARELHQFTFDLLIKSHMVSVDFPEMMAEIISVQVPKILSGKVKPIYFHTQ
- Assay Overview: Displacement of [3H]mibolerone from human AR expressed in CHO-K1 cells after 2 hrs by scintillation counting
Property: pIC50
Numbers only, as −log10 of the molar value.

For every item in the list below, what is its measured pIC50?
1. CC1(C)C(=O)N(c2ccc(C#N)c(C(F)(F)F)c2)C(=S)N1CCS(N)(=O)=O
2. CNS(=O)(=O)CCCN1C(=S)N(c2ccc(C#N)c(C(F)(F)F)c2)C(=O)C1(C)C
3. CN(C)S(=O)(=O)CCCN1C(=S)N(c2ccc(C#N)c(C(F)(F)F)c2)C(=O)C1(C)C
4. COc1cc(N2C(=O)C(C)(C)N(CCCS(N)(=O)=O)C2=S)ccc1C#N
5. CC1(C)C(=O)N(c2ccc(C#N)c(C(F)(F)F)c2)C(=S)N1CCCC(=O)O
6. CC1(C)C(=O)N(c2ccc(C#N)c(Cl)c2)C(=S)N1CCCS(N)(=O)=O

Solution:
1. 6.11
2. 6.77
3. 7.10
4. 5.72
5. 5.41
6. 6.36

====

- Target Entity: Androgen receptor (Homo sapiens, UniProt P10275)
- Assay Overview: Displacement of [3H]mibolerone from human AR expressed in CHO-K1 cells after 2 hrs by scintillation counting
Property: IC50 (µM)
Give bare numbers, in µM.

Give IC50 for each listed item.
1. CN1C(=S)N(c2ccc(C#N)c(C(F)(F)F)c2)C(=O)C1(C)C
2. CC1(C)C(=O)N(c2ccc(C#N)c(C(F)(F)F)c2)C(=S)N1CCCC(N)=O
3. CC1(C)C(=O)N(c2ccc(C#N)c(C(F)(F)F)c2)C(=S)N1CCCNC(N)=O
4. CC1(C)C(=O)N(c2ccc(C#N)c(C(F)(F)F)c2)C(=S)N1CCCS(N)(=O)=O
5. Cc1c(N2C(=O)C(C)(C)N(CCCS(N)(=O)=O)C2=S)ccc(C#N)c1C(F)(F)F

Solution:
[0.015, 0.48, 0.8, 0.4, 0.26]
